# half-life annotations
# condition-description: rat; liver microsomes; pH 7.4; 15.0 min; 1.0 µM
The response must be a number in min with no trailing unit.

Some solved cases for reference:
molecule: O=S(=O)(Nc1ccccc1)c1ccc(NCc2cccc(Cl)c2O)cc1
unit-of-measurement: min
half-life: 2.2

molecule: COc1cccc(C(=O)Nc2ccc3c(N4CCOCC4)ncnc3c2)c1
unit-of-measurement: min
half-life: 27.3

molecule: N#Cc1ccccc1Nc1ncc(-c2cccc3ccccc23)o1
unit-of-measurement: min
half-life: 5.8

The recorded half-life for entry `COc1ccccc1CNc1ccc(S(=O)(=O)Nc2nccs2)cc1` equals 2.8

The recorded half-life for entry `NC(=O)C1CCN(c2nc(-c3ccc(Cl)cc3)cs2)CC1` equals 3.09

The recorded half-life for entry `O=C(CNC12CC3CC(CC(C3)C1)C2)c1ccc(Cl)cc1` equals 2.2

The recorded half-life for entry O=C(COc1ccccc1)NCC(c1cccs1)S(=O)(=O)c1ccc(Cl)cc1 (stereo not drawn) equals 1.44

The recorded half-life for entry `CCN(CC)[S+](=O)([O-])c1cc(NC(=O)c2[nH]c(C)c(C(C)=O)c2C)ccc1OC` equals 4.7

The recorded half-life for entry `Nc1cc2nc3ccccc3oc-2cc1=O` equals 8.63

====

# condition-description: rat; liver microsomes; pH 7.4; 15.0 min; 1.0 µM
property: half-life

Some solved cases for reference:
smiles-entry: COc1cc(Cl)cn2c(-c3cccc(NC4CNC4)n3)cnc12
half-life: > 30 min
--
smiles-entry: Cc1cc(C)nc(NC(=S)N2CCN(Cc3ccc(C(F)(F)F)cc3)CC2)c1
half-life: > 30 min
--
smiles-entry: Cc1ccc(C(=O)Nc2cccc(C(F)(F)F)c2)cc1Nc1nc(-c2cccnc2)nc2c1cnn2C
half-life: > 30 min

Could you now consider this next compound?
The recorded half-life for entry `COCCNc1ncnc2onc(-c3ccc(F)cc3)c12` equals > 30 min

====

# half-life annotations
# condition-description: rat; liver microsomes; pH 7.4; 15.0 min; 1.0 µM

The recorded half-life for entry `Cc1ccc(-c2cc(C(=O)Nc3ccncc3)c3ccccc3n2)cc1` equals > 30 min

The recorded half-life for entry `COc1c(C)cc(NC(=O)c2nn(Cc3ccc(F)cc3)c3c2CN(C(=O)c2ccc[nH]2)C[C@]3(C)C(N)=O)cc1C` equals > 30 min

The recorded half-life for entry `Cc1ccc(C(=O)Nc2ccc(CN3CCN(C)CC3)c(C(F)(F)F)c2)cc1C#Cc1cnc2cccnn12` equals > 30 min

====

# half-life annotations
# condition-description: rat; liver microsomes; pH 7.4; 15.0 min; 1.0 µM

Some solved cases for reference:
smiles-entry: CN(C)CCN1C(=O)c2cccc3cc(N)cc(c23)C1=O
property: half-life
test-result: > 30 min
//
smiles-entry: O=C(Cc1ccc(-c2csc(Nc3ccc(F)cc3)n2)s1)N1CCOCC1
property: half-life
test-result: > 30 min

Could you now consider this next molecule?
The recorded half-life for entry `CC[C@@]1(O)C(=O)OCc2c1cc1n(c2=O)Cc2cc3ccccc3nc2-1` equals > 30 min

====

# condition-description: rat; liver microsomes; pH 7.4; 15.0 min; 1.0 µM
property: half-life

Some solved cases for reference:
smiles-entry: Cc1cc(C)nc(NC(=S)N2CCN(c3cc(C(F)(F)F)nc4ccccc34)CC2)c1
test-result: > 30 min
//
smiles-entry: COC(=O)CNC(=O)c1nc(-c2ccc([S+](C)(=O)[O-])cc2)c2ccccn12
test-result: > 30 min
//
smiles-entry: CS(=O)(=O)c1ccc2nc(NC(=O)C3CC3)sc2c1
test-result: > 30 min
//
smiles-entry: COc1ccc(-c2nc3ccccc3s2)cc1NC(=O)c1ccc(F)cc1
test-result: > 30 min

The recorded half-life for entry `CNC(=O)c1cccc(-c2cnc(Nc3cccc(C(F)(F)F)c3)c3c2CCO3)c1` equals > 30 min

The recorded half-life for entry `COc1cc(-c2nc(Nc3ccc(F)c(F)c3)c3ccccc3n2)c(F)cn1` equals > 30 min

The recorded half-life for entry `O=C(Nc1ncc(Cc2ccc(C(F)(F)F)cc2)s1)c1ccco1` equals > 30 min

====

# condition-description: rat; liver microsomes; pH 7.4; 15.0 min; 1.0 µM
property: half-life

smiles-entry: CS(=O)(=O)c1ccc(-c2csc(N3CCC(C(N)=O)CC3)n2)cc1
half-life: > 30 min

smiles-entry: Cc1sc(NC(=O)Cc2ccc3c(c2)OCO3)nc1-c1ccc2c(c1)CCN2C(=O)c1ccccc1C(F)(F)F
half-life: > 30 min

Could you now consider this next compound?
The recorded half-life for entry `COc1cccc(-c2nc3cc(NC(=O)c4ccc(C)c([N+](=O)[O-])c4)ccc3o2)c1` equals > 30 min

====

# half-life annotations
# condition-description: rat; liver microsomes; pH 7.4; 15.0 min; 1.0 µM

Some solved cases for reference:
smiles-entry: N=c1c2ccccc2nnn1-c1ccc(C(F)(F)F)cc1
half-life: > 30 min
//
smiles-entry: Cn1nnnc1Sc1ncnc2scc(-c3cccc(S(C)(=O)=O)c3)c12
half-life: > 30 min

Could you now consider this next compound?
The recorded half-life for entry `CCC(CC)(NC(=O)C(C)C)C(=O)N[C@@H](CCCN=C(N)N)C(=O)NC1(C(=O)NC(c2ccc(F)cc2)c2ccc(F)cc2)CCCC1` equals > 30 min

====

# half-life annotations
# condition-description: rat; liver microsomes; pH 7.4; 15.0 min; 1.0 µM

smiles-entry: Cc1onc(-c2ccccc2)c1C(=O)Nc1nnc(COc2ccc(Cl)cc2)s1
property: half-life
test-result: > 30 min
--
smiles-entry: COc1cc2nccc(Oc3ccc(NC(=O)C4(C(=O)Nc5ccc(F)cc5)CC4)cc3)c2cc1OC
property: half-life
test-result: > 30 min

The recorded half-life for entry `Cc1ccnc(NC(=S)N2CCN(c3ccc(C(F)(F)F)cc3)CC2)c1` equals > 30 min

====

# condition-description: rat; liver microsomes; pH 7.4; 15.0 min; 1.0 µM
property: half-life

Some solved cases for reference:
compound: NC1CCN(c2nc(-c3ccc(Br)cc3)cs2)CC1
half-life: > 30 min
//
compound: COc1cccc(CNc2ccc(S(=O)(=O)Nc3ccccn3)cc2)c1O
half-life: > 30 min
//
compound: Cc1ccc(-n2ncc(C(=O)NCCN3CCC(Cc4ccccc4)CC3)c2C2CCN(C(=O)OC(C)(C)C)CC2)cc1
half-life: 9.29 min
//
compound: O=S(=O)(Nc1ccc2ccccc2c1)c1ccc(NCc2cccc(Cl)c2O)cc1
half-life: 13 min
//
compound: CCc1ccc(C2N=C(N)Nc3nc4ccccc4n32)cc1 (stereo not drawn)
half-life: 5.62 min
//
compound: Nc1ncc(S(=O)(=O)N2CCOCC2)s1
half-life: > 30 min

The recorded half-life for entry `COc1cccc(Nc2ncc(-c3cccc(N(C)C)c3)c3c2OCC3)c1` equals 8.98 min

The recorded half-life for entry `COc1ccc(CNc2ccc(S(=O)(=O)Nc3nccs3)cc2)c(O)c1` equals 3.9 min

====

# condition-description: rat; liver microsomes; pH 7.4; 15.0 min; 1.0 µM
# half-life annotations
The response must be a number in min with no trailing unit.

compound: NC(=O)C1CCN(c2nc(-c3ccc4c(c3)OCCO4)cs2)CC1
half-life (min): 3.09

The recorded half-life for entry `COc1cccc(-c2nc(-c3c(C)noc3C)cc3[nH]c(C)cc23)c1OC` equals 10.2

The recorded half-life for entry `COc1ccc(-c2cc(C(F)(F)F)nc(SCCC(=O)Nc3cc(C)ccc3O)n2)cc1` equals 14.9

The recorded half-life for entry `OCc1ccc(-c2cc3c(ccn3Cc3cccnc3)c(C3=CCOCC3)n2)cc1` equals 4.89

The recorded half-life for entry O=C(NC(c1ccccc1)c1cc(Cl)c2cccnc2c1O)c1cccnc1 (stereo not drawn) equals 18.6

The recorded half-life for entry `Cc1cc(-c2nnc3n2CCCCC3)c(C)n1-c1ccc(C(C)(C)C)cc1` equals 1.9

The recorded half-life for entry `Cc1cc(C)nc(NC(=S)N2CCN(c3cccc([N+](=O)[O-])c3)CC2)c1` equals 17

The recorded half-life for entry `Oc1ccc(CNc2ccc(C(F)(F)F)cc2F)c2cccnc12` equals 5.53

The recorded half-life for entry `CCOc1ccc(CCNC(=O)c2cc3ccncc3n2Cc2cccc(C)n2)cc1OCC` equals 29

The recorded half-life for entry `O=C(NCCCCc1ccccc1)C1CCN(c2nc(-c3ccc(Br)cc3)cs2)CC1` equals 4.1

The recorded half-life for entry `CN(C)c1cccc(-c2ccnc(N3CCC(C(N)=O)CC3)n2)c1` equals 1.67

The recorded half-life for entry `O=S(=O)(Nc1ccc(C2CCNCC2)cc1)c1ccc(NCc2cccc(Cl)c2O)cc1` equals 20

====

# condition-description: rat; liver microsomes; pH 7.4; 15.0 min; 1.0 µM
# half-life annotations
The response must be a number in min with no trailing unit.

Some solved cases for reference:
compound: O=C(Nc1ncccc1O)c1ccc(S(=O)(=O)Nc2ccccc2)cc1
unit-of-measurement: min
half-life: 2.58
--
compound: COc1ccc(S(=O)(=O)N2CCN(C(=O)C3COc4ccccc4O3)CC2)cc1 (stereo unspecified)
unit-of-measurement: min
half-life: 7.6
--
compound: FC(F)(F)c1cc(-c2ccc(CNc3nc(-c4ccccc4C(F)(F)F)nc4ccsc34)cc2)ccn1
unit-of-measurement: min
half-life: 14.8
--
compound: Cc1cc(-c2nnc3n2CCCCC3)c(C)n1-c1ccc(F)cc1
unit-of-measurement: min
half-life: 3.2

Could you now consider this next compound?
The recorded half-life for entry `Fc1ccc(-c2ccc(Nc3nc(-c4ccncc4)nc4ccccc34)cc2F)c(Cl)c1` equals 25
